assay-name: Pharmacokinetic study in rats
test-settings: SD (Sprague-Dawley), rat, plasma, oral, 20 μmol/kg, Plasma concentration Rat 3, SD rats, intragastric 20 μmol/kg, 360 min, Rat 3
Structures can show the parent of a compound that is named as a salt.
measured-endpoint: concentration at 360 min
Put down the number, then write its unit next to it.

**Q:** Could you share which concentration at 360 min value was measured for CNC(=O)c1ccc(-c2cnc3ncc(Cc4ccc5ncccc5c4)n3n2)cc1F [INCB28060 hydrochloride] ?
**A:** 211 nM

###

assay-name: Pharmacokinetic study in rats
test-settings: SD (Sprague-Dawley), rat, plasma, oral, 20 μmol/kg, Plasma concentration Rat1, SD rats, intragastric 20 μmol/kg, 480 min, Rat1
Description: All stock solutions of the test compound were sonicated and heated to become clarified and formulated to a 25 mM solution with DMSO. All samples were dosed at 20 μmol/kg. The blood sample was centrifuged at 8000 rpm for 5 min, the plasma was collected in a centrifuge tube and stored at −20° C. for use. Treatment of the plasma sample: the proteins in 50 μL plasma sample were precipitated with 200 μL acetonitrile containing internal standard (Propranolol (PRO), 2.5 ng/mL). […]
Where a name gives a salt, the structure may show the parent alone.
measured-endpoint: concentration at 480 min (nM)
# unit: nM | format: bare number

**Q:** Could you share which concentration at 480 min value was measured for CNC(=O)c1ccc(-c2cnc3ncc(Cc4ccc5ncccc5c4)n3n2)cc1F [INCB28060 hydrochloride] ?
**A:** 88.5
